Each recorded value in this set is attributed to ChEMBL document CHEMBL2163249.

Biological target: UniProt O42275
Sequence (O42275 24-633 limits assumed): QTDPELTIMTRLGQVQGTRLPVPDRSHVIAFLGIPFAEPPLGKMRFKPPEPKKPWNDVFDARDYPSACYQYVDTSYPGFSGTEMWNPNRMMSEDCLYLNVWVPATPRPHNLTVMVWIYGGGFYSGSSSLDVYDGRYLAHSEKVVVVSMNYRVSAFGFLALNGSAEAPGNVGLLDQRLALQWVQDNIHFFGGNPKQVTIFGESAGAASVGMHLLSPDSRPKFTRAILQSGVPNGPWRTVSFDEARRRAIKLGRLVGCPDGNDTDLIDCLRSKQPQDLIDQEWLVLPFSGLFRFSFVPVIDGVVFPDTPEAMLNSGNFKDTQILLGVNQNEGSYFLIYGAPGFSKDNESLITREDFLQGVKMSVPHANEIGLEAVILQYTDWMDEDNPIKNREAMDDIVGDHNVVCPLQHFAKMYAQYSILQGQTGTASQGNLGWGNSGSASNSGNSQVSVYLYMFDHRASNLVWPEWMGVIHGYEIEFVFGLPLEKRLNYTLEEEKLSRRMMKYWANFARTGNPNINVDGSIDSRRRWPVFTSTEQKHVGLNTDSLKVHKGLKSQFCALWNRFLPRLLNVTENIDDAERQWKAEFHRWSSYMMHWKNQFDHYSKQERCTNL
Conditions: at 2 mg/mL
Description: Inhibition of electric eel AChE at 2 mg/ml by Ellman's method
Starred links: 1 amine or outer side, 2 acyl side, 3 side chain; linkers in the order of their positions; H or OH if unused. Positions of bridges follow the written chain, without caps; N, C: chain ends. Non-standard residues stand in square brackets, D forms with d. Residues, ends and D or L forms follow the SMILES beside them. Chains are numbered I, II in the order given. Actinocin(9to1) = Cc1c2oc3c(C)ccc(C(=O)[*:1])c3nc-2c(C(=O)[*:2])c(N)c1=O; NMeV = CN[C@H](C(=O)O)C(C)C; Sar = CNCC(=O)O
Recorded metric: inhibition (%)
Please give a number only; it is taken to be in %.

Example cases with answers are listed next.
Compound	Uom	inhibition
CCCC[N+]1(C)[C@@H]2C[C@@H](OC(=O)[C@H](CO)c3ccccc3)C[C@H]1[C@@H]1O[C@@H]12 (some centres undefined)	%	22.5
CC1(C)CCC[C@](C)([C@H]2CC[C@]3(C)[C@@H]2[C@H](O)C[C@@H]2[C@@]4(C)CC[C@H](O)C(C)(C)[C@@H]4CC[C@]23C)O1	%	7.82
c1cncc([C@@H]2CCCCN2)c1	%	0.25
Cc1c2oc3c(C)ccc(C(=O)N[C@@H]4C(=O)N[C@H](C(C)C)C(=O)N5CCC[C@H]5C(=O)N(C)CC(=O)N(C)[C@@H](C(C)C)C(=O)O[C@@H]4C)c3nc-2c(C(=O)N[C@@H]2C(=O)N[C@H](C(C)C)C(=O)N3CCC[C@H]3C(=O)N(C)CC(=O)N(C)[C@@H](C(C)C)C(=O)O[C@@H]2C)c(N)c1=O (I: T[dV]P[Sar][NMeV] / II: T[dV]P[Sar][NMeV]; ester I:1-I:C, II:1-II:C; linker I:N-II:N via Actinocin(9to1))	%	-2.56
CCCCC[C@H](O)/C=C/[C@@H]1[C@@H](C/C=C\CCCC(=O)O)[C@@H](O)C[C@H]1O	%	12.9
COc1ccc([C@@H]2CC(=O)c3c(O)cc(O[C@@H]4O[C@H](CO[C@@H]5O[C@@H](C)[C@H](O)[C@@H](O)[C@H]5O)[C@@H](O)[C@H](O)[C@H]4O)cc3O2)cc1O	%	-4.26
N[C@H](C(=O)O)[C@@H]1CC(Cl)=NO1	%	2.09
Cc1cc2cc3c(C)cc(=O)oc3c(C)c2o1	%	14.3
CO[C@H]1/C=C/O[C@@]2(C)Oc3c(C)c(O)c4c(O)c(cc(O)c4c3C2=O)NC(=O)/C(C)=C\C=C\[C@H](C)[C@H](O)[C@@H](C)[C@@H](O)[C@@H](C)[C@H](OC(C)=O)[C@@H]1C	%	-6.18
CCOC(=O)[C@H]1O[C@@H]1C(=O)N[C@@H](CC(C)C)C(=O)NCCC(C)C	%	1.24

Q) Param item = C[C@@H]1Cc2c(Cl)cc(C(=O)N[C@@H](Cc3ccccc3)C(=O)O)c(O)c2C(=O)O1 ; retrieve measured inhibition.
A) -6.4

Q) Param item = COc1cc([C@@H]2c3cc4c(cc3[C@@H](O)[C@H]3COC(=O)[C@H]23)OCO4)cc(OC)c1O ; retrieve measured inhibition.
A) 6.34

Q) Param item = COc1cc2c(cc1O)C[C@H]1c3c(cc(O)c(OC)c3-2)CCN1C ; retrieve measured inhibition.
A) 9.51
